Recorded pKd values for a group of binders are listed next.
# target: T1, Homo sapiens factor Bb protein (human, UniProt P00751 260-764)
# T1 construct: Bought from CompTech (A155); also called complement factor Bb; human factor Bb
# T1 sequence (P00751 260-764 limits assumed): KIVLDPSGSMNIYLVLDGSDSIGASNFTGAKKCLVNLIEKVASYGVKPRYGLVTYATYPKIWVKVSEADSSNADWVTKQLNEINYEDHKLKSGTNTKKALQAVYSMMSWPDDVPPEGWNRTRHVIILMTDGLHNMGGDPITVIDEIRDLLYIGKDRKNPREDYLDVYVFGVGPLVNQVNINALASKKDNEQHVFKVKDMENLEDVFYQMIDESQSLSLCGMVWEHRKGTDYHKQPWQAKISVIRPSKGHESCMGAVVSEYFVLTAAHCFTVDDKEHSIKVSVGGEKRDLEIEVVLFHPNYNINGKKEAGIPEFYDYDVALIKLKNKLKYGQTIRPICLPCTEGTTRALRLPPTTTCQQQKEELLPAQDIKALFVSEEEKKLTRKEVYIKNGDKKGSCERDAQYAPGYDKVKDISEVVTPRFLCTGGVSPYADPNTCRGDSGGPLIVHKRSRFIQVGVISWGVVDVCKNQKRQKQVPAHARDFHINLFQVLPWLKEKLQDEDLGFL
# test.details: SPR single cycle kinetics, IgG on Protein A chip, factor Bb analyte
The meaning of pKd here: minus log10 of the concentration in molar units.

Study these solved cases before continuing.
binder="VH0/Vκ0 (Chimeric) (antibody, V domains shown, also called chimeric antibody) VH: EVQLVESGGALVKPGGSLKLSCAASGFTFSNYAMSWVRQTPEKRLEWVATISNRGSYTYYPDSVKGRFTISRDNAKNTLYLQMSSLRSEDTALYYCARERPMDYWGQGTSVTVSS VL: DIVMTQSHKFMSTSVGDRVSITCKASQDVGTAVAWYQQKPGQSPKLLIYWASTRHTGVPDRFTGSGSGTDFTLTITNVQSEDLAVYFCHQHSSNPLTFGAGTKLELK" result_value=8.75
binder="VH0/Vκ6 (antibody, V domains shown, Control antibody of the redesign round; cloned into the appropriate expression vector (IgG4v1 and kappa were used in the first round), HEK EBNA supernatant) VH: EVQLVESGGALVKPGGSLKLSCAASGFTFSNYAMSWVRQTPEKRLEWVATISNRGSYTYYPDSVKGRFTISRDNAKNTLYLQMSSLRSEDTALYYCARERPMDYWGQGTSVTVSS VL: DIVMTQSPSFLSASVGDRVTITCKASQDVGTAVAWYQQKPGKAPKLLIYWASTRHTGVPDRFTGSGSGTDFTLTISSLQSEDFAVYFCHQHSSNPLTFGQGTKLEIK" result_value=8.63

Field: next binder
The reported pKd of the binder VH0/Vκ7 (antibody, V domains shown, Control antibody of the redesign round; cloned into the appropriate expression vector (IgG4v1 and kappa were used in the first round), HEK EBNA supernatant) VH: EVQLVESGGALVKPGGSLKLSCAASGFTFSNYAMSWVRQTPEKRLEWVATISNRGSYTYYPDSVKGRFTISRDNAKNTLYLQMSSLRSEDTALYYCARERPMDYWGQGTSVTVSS VL: DIQMTQSPSTLSASVGDRVTITCKASQDVGTAVAWYQQKPGKAPKLLIYWASTRHTGVPDRFSGSGSGTDFTLTISSLQAEDFAVYFCHQHSSNPLTFGQGTKLEIK was 8.68
